Please respond with reported pEC50 for every item in the list.
# system: rat M1 Y106A receptor (Rattus norvegicus, UniProt P08482, Y106A)
# Construct: expressed in transfected cells
# measurement-notes: Phosphatidyl inositol hydrolysis assay, Y106A
# Format: cell-based
# measurement-parameters: Table 6; PI hydrolysis; Y106A
One number for each entry, as −log10 of the molar value.

Your task in this section: give pEC50 for each listed record.
1. CCCCC1CCN(CCCN2C(=O)COc3cc(F)ccc32)CC1 [AC-260584]
2. Clc1ccc2c(c1)N=C(N1CCNCC1)c1ccccc1N2 [NDMC]

1. 6.60
2. 6.70

----------
# system: rat M1 L102A receptor (Rattus norvegicus, UniProt P08482, L102A)
# Sequence (P08482 1-460 L102A): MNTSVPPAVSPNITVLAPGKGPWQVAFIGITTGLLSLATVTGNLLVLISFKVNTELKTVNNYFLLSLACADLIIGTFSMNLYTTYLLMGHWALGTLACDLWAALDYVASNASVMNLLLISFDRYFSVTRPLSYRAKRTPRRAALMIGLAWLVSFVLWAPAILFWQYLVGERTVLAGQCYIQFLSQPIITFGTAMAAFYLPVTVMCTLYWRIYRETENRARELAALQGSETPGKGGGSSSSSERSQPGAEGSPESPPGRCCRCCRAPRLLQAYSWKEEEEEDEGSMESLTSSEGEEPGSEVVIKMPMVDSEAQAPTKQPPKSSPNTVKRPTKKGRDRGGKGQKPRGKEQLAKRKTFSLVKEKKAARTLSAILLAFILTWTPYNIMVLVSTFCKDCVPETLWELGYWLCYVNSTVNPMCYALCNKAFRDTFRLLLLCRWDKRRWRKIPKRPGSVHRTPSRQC
# measurement-notes: R-SAT functional assay, L102A mutant
# measurement-parameters: Table 3; L102A
# Protocol: Cells are co-transfected for 18 h with DMEM containing 0.08 micrograms/ml of an expression vector for the expression of the mutant receptor and 0.3 micrograms/ml pSI-Bgal (Promega, Madison Wis.), and 0.5% v/v Polyfect (Qiagen, Valencia Calif.), as recommended by the manufacturer. […] The media is removed from the plates, and beta-galactosidase activity is measured by the addition of o-nitrophenyl -d-galactopyranoside in phosphate-buffered saline with 5% Nonidet P-40. […]
measurement-name: pEC50
Give bare numbers, as −log10 of the molar value.

pEC50 lookup needed for CCCCC1CCN(CCCN2C(=O)COc3cc(F)ccc32)CC1 [AC-260584] , thanks.
6.30

----------
# system: rat M1 Y381A receptor (Rattus norvegicus, UniProt P08482, Y381A)
# Construct: expressed in transfected cells; host or cells: NIH-3T3
# Sequence (P08482 1-460 Y381A): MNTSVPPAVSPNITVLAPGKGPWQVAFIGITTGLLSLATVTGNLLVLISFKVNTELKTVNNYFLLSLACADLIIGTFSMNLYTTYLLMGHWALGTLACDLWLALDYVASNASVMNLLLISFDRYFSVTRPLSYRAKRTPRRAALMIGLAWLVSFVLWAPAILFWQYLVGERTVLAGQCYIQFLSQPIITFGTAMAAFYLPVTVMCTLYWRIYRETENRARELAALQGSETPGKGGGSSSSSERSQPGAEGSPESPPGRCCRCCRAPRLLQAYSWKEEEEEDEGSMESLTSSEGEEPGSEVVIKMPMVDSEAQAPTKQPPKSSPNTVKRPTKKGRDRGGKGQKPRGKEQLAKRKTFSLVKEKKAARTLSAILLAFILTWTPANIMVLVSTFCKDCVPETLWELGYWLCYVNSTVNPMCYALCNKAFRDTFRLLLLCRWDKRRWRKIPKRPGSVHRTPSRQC
# measurement-notes: R-SAT functional assay, Y381A mutant
# Format: cell-based
# measurement-parameters: Table 4; M1 Y381A; maximum response relative to xanomeline
Lab note: compare % Eff with 60%, writing 1 if less and 0 if equal or more.

Clc1ccc2c(c1)N=C(N1CCNCC1)c1ccccc1N2 = 0

Hello, is % Eff of the following compound strictly smaller than 60%? CCCCCCOc1nsnc1C1=CCCN(C)C1
0

Strictly below 60%: is that where % Eff of CCCCC1CCN(CCCC(=O)c2ccccc2C)CC1 sits?
1

% Eff under 60%? Item: O=C1CCCN1CC#CCN1CCCC1
1
